Biological target: human GPR68 (Homo sapiens, UniProt Q15743)
Sequence (Q15743 whole entry): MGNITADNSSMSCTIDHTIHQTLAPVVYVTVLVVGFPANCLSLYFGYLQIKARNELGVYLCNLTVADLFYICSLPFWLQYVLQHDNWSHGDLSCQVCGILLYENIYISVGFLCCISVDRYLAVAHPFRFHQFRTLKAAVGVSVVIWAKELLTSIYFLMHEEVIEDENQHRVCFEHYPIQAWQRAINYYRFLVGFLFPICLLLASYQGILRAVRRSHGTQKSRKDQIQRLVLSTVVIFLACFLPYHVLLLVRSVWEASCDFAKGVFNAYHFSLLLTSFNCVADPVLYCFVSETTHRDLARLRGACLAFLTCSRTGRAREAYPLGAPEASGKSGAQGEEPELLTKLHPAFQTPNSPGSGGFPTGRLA
Assay: GloSensor cAMP assay, proton-mediated Gs-cAMP production at human GPR68
Type: cell-based
Conditions: difference of Log(αβ/KB) from that of 1; human GPR68
Measurement label: Δ

In [3]: df
Out[3]:
                              record_smiles  recorded_result
0  Nc1nc(NCc2ccc(Oc3ccccc3)cc2)nc(-c2c(F)cccc2CO)n1             1.52
1  Nc1nc(NCCCCc2ccccc2)nc(-c2cc(Cl)ccc2CO)n1             0.83
2     Nc1nc(NCc2ccc(F)cc2)nc(-c2ccccc2CO)n1             0.11
3    Nc1nc(NCc2ccccc2)nc(-c2ccc(Cl)cc2CO)n1             0.56
4  Nc1nc(NCc2ccc(F)cc2)nc(-c2c(F)cccc2CO)n1             0.24
